- Protocol notes: Inhibition of bovine brain tubulin assembly assessed as decrease in turbidity after 20 mins
- Design: species or system Bos taurus
pIC50: −log10 of the molar value.
Endpoint label: pIC50

| Compound | Endpoint label | Measurement qualifier | Reported result |
| --- | --- | --- | --- |
| Cc1cc2c(cc1OS(N)(=O)=O)CC[C@@H]1[C@@H]2CC[C@]2(C)C(OS(N)(=O)=O)CC[C@@H]12 (stereo partly drawn) | pIC50 | = | 5.89 |
| COc1cc2c(cc1OS(N)(=O)=O)CC[C@@H]1[C@@H]2CC[C@]2(C)[C@@H](OS(N)(=O)=O)CC[C@@H]12 | pIC50 | = | 5.66 |
| CCc1cc2c(cc1OS(N)(=O)=O)CC[C@@H]1[C@@H]2CC[C@]2(C)[C@@H](C[N+](=O)[O-])CC[C@@H]12 | pIC50 | = | 5.77 |
| COc1cc2c(cc1OS(N)(=O)=O)CC[C@@H]1[C@@H]2CC[C@]2(C)C(=O)CC[C@@H]12 | pIC50 | = | 5.48 |
| CCc1cc2c(cc1OS(N)(=O)=O)CC[C@@H]1[C@@H]2CC[C@]2(C)[C@@H](OS(C)(=O)=O)CC[C@@H]12 | pIC50 | = | 5.80 |
| CCc1cc2c(cc1OS(N)(=O)=O)CC[C@@H]1[C@@H]2CC[C@]2(C)[C@@H](CS(C)(=O)=O)CC[C@@H]12 | pIC50 | = | 5.68 |
| COc1cc2c(cc1OS(N)(=O)=O)CC[C@@H]1[C@@H]2CC[C@]2(C)[C@@H](CC#N)CC[C@@H]12 | pIC50 | = | 5.89 |
| COc1cc2c(cc1O)CC[C@@H]1[C@@H]2CC[C@]2(C)[C@@H](O)CC[C@@H]12 | pIC50 | = | 5.15 |
| CCc1cc2c(cc1OS(N)(=O)=O)CC[C@@H]1[C@@H]2CC[C@]2(C)[C@@H](OS(N)(=O)=O)CC[C@@H]12 | pIC50 | = | 5.89 |
| COc1cc2c(cc1O)CC[C@@H]1[C@@H]2CC[C@]2(C)C(OS(N)(=O)=O)CC[C@@H]12 (stereo partly drawn) | pIC50 | < | 4.40 |
| CCCc1cc2c(cc1OS(N)(=O)=O)CC[C@@H]1[C@@H]2CC[C@]2(C)C(OS(N)(=O)=O)CC[C@@H]12 (stereo partly drawn) | pIC50 | = | 4.70 |
| COc1cc2c(cc1OS(=O)(=O)N(C)C)CC[C@@H]1[C@@H]2CC[C@]2(C)C(=O)CC[C@@H]12 | pIC50 | < | 4.40 |
| CCc1cc2c(cc1OS(N)(=O)=O)CC[C@@H]1[C@@H]2CC[C@@]2(C)[C@H]1CC[C@@H]2S(C)(=O)=O | pIC50 | = | 5.44 |

====

- Species on record: Bos taurus
- Protocol notes: Displacement of [3H]colchicine from bovine brain tubulin at 5 uM after 10 mins
Endpoint label: inhibition (%)

| Smi | Endpoint label | Reported result |
| --- | --- | --- |
| COc1cc2c(cc1OS(N)(=O)=O)CC[C@@H]1[C@@H]2CC[C@]2(C)[C@@H](CC#N)CC[C@@H]12 | inhibition | 78 |
| CCc1cc2c(cc1OS(N)(=O)=O)CC[C@@H]1[C@@H]2CC[C@]2(C)[C@@H](C[N+](=O)[O-])CC[C@@H]12 | inhibition | 74 |
| COc1cc2c(cc1O)CC[C@@H]1[C@@H]2CC[C@]2(C)[C@@H](O)CC[C@@H]12 | inhibition | 17 |
| CCc1cc2c(cc1OS(N)(=O)=O)CC[C@@H]1[C@@H]2CC[C@]2(C)[C@@H](CS(C)(=O)=O)CC[C@@H]12 | inhibition | 37 |
